Reference source for all entries: patent US20110207726A1

Exercise: for every item that follows, state its recorded log10(IC50).
Target: Human spleen cathepsin S (Homo sapiens, UniProt P25774)
Construct: Human spleen cathepsin S (Calbiochem 219344, 40 ng/mL); purchased Calbiochem 219344; host or cells: human spleen
Sequence (P25774 115-331): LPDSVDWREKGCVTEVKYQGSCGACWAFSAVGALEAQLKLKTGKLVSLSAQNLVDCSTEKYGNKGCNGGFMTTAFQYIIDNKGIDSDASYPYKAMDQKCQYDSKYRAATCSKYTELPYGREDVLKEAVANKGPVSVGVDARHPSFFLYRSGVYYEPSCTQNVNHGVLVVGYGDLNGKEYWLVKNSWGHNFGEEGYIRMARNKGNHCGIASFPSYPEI
Assay: Cathepsin S assay, IC50 determination
Type: biochemical
Settings: Table 1; read-out: IC50 Cat S
Log10 applied to IC50; unit prior to transform: µM.

Recorded results for 8 compounds are shown here.
{"columns": ["compound", "log10(IC50)"],
 "data": [
  ["CC(C)[C@H](NC(=O)OC(C)(C)C)C(=O)NNC(=O)SCC(=O)N1CCCc2ccccc21 [Compound No. 22]", 0.63],
  ["CC(C)(C)OC(=O)N[C@@H](COCc1ccccc1)CC(=O)NNC(=O)SCC(=O)N1CCCc2ccccc21 [Compound No. 83]", 0.77],
  ["CSCC[C@H](NC(=O)OC(C)(C)C)C(=O)NNC(=O)SCC(=O)N1CCc2ccccc2C1 [Compound No. 19]", -0.39],
  ["CC(C)(C)OC(=O)N[C@@H](Cc1c[nH]c2ccccc12)C(=O)NNC(=O)SCC(=O)N1CCCc2ccccc21 [Compound No. 5]", -0.03],
  ["CC(C)(C)OC(=O)N[C@@H](CCCCNC(=O)OCc1ccccc1)C(=O)NNC(=O)SCC(=O)N1CCCc2ccccc21 [Compound No. 57]", 0.71],
  ["CC(C)(C)OC(=O)N[C@@H](COCc1ccccc1)C(=O)NNC(=O)SCC(=O)N1CCc2ccccc2C1 [Compound No. 50]", -0.02],
  ["CCc1ccccc1NC(=O)CSC(=O)NNC(=O)C[C@H](CCSC)NC(=O)OC(C)(C)C [Compound No. 76]", 0.38],
  ["CCc1ccccc1NC(=O)CSC(=O)NNC(=O)C[C@H](COCc1ccccc1)NC(=O)OC(C)(C)C [Compound No. 82]", 0.65]
]}

Incoming: Any idea what log10(IC50) was measured for CCc1ccccc1NC(=O)CSC(=O)NNC(=O)C[C@@H](COCc1ccccc1)NC(=O)OC(C)(C)C [Compound No. 84] ?
Outgoing: 1.18
